Consider the following variants and their measured self-cleavage readings.
B1: HDV Ribozyme (parent)
chain: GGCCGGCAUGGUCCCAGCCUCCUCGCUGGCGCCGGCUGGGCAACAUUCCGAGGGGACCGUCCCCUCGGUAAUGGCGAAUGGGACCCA

# Variants of: B1
# Method Summary: self-cleavage, relative activity (ratio to wild type); higher = more cleavage; co-transcriptional
Value Kind: self-cleavage

> print(dat)
   mutant.designation  reported.result
1            G6C C58G            0.133
2           C32G U72G           0.0519
3           C32G G82U            0.228
4           G67A C86U            0.845
5           G25A C41G            0.177
6           C13A G68A            0.187
7            A8G C36G            0.104
8           U20A G74U           0.0437
